Reported CC50 values are given for each entry in this list.
- experimental-details: Cytotoxicity against African green monkey Vero cells assessed as reduction in cell viability
- Type: toxicity, cell-based
- condition-info: chlorocebus sabaeus, vero
value-kind: CC50 (µM)

compound	endpoint-unit	value-operator	assay-value
Cc1cc(C(=O)N[C@@H](Cc2cccc3ccccc23)C(=O)N[C@@H](CC(C)C)C(=O)N[C@@H](C[C@@H]2CCCNC2=O)C(O)C(=O)NC2CC2)no1 (some centres undefined)	µM	>	100
CC(C)C[C@H](NC(=O)[C@H](Cc1cccc2ccccc12)NC(=O)OCc1ccccc1)C(=O)N[C@H](C=O)C[C@@H]1CCCNC1=O	µM	>	100
CC(C)C[C@H](NC(=O)[C@H](Cc1cccc2ccccc12)NC(=O)OCc1ccccc1)C(=O)N[C@H](C=O)CNC(=O)N1CCC1	µM	>	100
Cc1ccsc1C(=O)N[C@@H](Cc1cccc2ccccc12)C(=O)N[C@@H](CC(C)C)C(=O)N[C@H](C=O)C[C@@H]1CCCNC1=O	µM	=	53.1
CC(C)C[C@H](NC(=O)[C@H](Cc1cccc2ccccc12)NC(=O)OCc1ccccc1)C(=O)N[C@H](/C=C(\C#N)C(N)=O)C[C@@H]1CCCNC1=O	µM	>	100
CC(C)C[C@H](NC(=O)[C@H](Cc1cccc2ccccc12)NC(=O)c1cc(C(F)(F)F)on1)C(=O)N[C@H](C=O)C[C@@H]1CCCNC1=O	µM	=	49.9
CC(C)C[C@H](NC(=O)[C@H](Cc1cccc2ccccc12)NC(=O)OCc1ccccc1)C(=O)N[C@H](C=O)Cn1ccnn1	µM	=	35.7
CC(C)C[C@H](NC(=O)[C@H](Cc1ccc(F)cc1)NC(=O)OCc1ccccc1)C(=O)N[C@H](C=O)C[C@@H]1CCCNC1=O	µM	>	100
Cc1cc(C(=O)N[C@@H](Cc2cccc3ccccc23)C(=O)N[C@@H](CC(C)C)C(=O)N[C@H](C=O)C[C@@H]2CCCNC2=O)no1	µM	=	84.3
